- System: RXF 393 renal
- ASSAY REMARKS: NCI-60 one-dose screen, 48 h (100 = growth as untreated, 0 = no growth, -100 = all killed)
- CONDITION SUMMARY: 10 µM unless noted
The panel holds about 83,000 compounds, 20% with a hit somewhere; the sample as a whole holds those more often. Calls of active or inactive are those of the source. How the source made its calls: active means growth percent below 10; inactive means the rest.
ASSAY READOUT: growth

Q: Report growth for CCN(CC)c1ccc(C(O)C2=CC(=O)c3ccccc3C2=O)cc1 (stereo unspecified) please.
A: -80.2% (active)

Q: Consider the compound shown here: `NC(N)=NC(N)=NCCCc1ccccc1` What is its recorded growth?
A: 72.4% [100 µM] (inactive)

Q: Look up growth: COc1ccc(C(=O)C(C)Br)cc1OC (stereo unspecified)
A: 102% (inactive)

Q: Item under review: `Cn1cc(-c2csc(-c3cn(C)c4ncccc34)n2)c2cccnc21` . Reported growth?
A: 98.4% (inactive)

Q: What does the data say about its growth? Entry: `CC(=O)c1ccc2c3c(n(C)c2c1)CCCC3`
A: 112% (inactive)

Q: // returns reported growth for input `COc1cc(OC)c2sc(-c3ccc(-n4cncc4-c4ccc(N)cc4)cc3)nc2c1`
A: 81.5% (inactive)

Q: So what's the measured growth for this one? `COc1cc(/C=C/C(=O)N2CCN(C(=O)/C=C/c3ccccc3)CC2)cc(OC)c1OC`
A: 125% (inactive)

Q: Name the reported growth value associated with the compound C[C@@H]1CC[C@H]2[C@@H](C)C(O)O[C@@H]3O[C@]4(C)CC[C@@H]1[C@]32OO4 (stereo partly specified)
A: 49.3% (inactive)

Q: Suppose we examine the compound `COC(=O)C[C@@H]1CC=CC(=O)/C1=C(O)/C=C/c1ccccc1` ; what growth value has been reported?
A: -83.6% (active)

Q: Can you look up the measured growth of `Cc1ccc(NC(=O)Nc2ccc(-c3cccnc3)cc2N2CCC(CO)CC2)cc1` for me?
A: -34.8% (active)

Q: Which growth value is on record for `CCCOc1ccc2c(c1)CC[C@@H]1[C@@H]2CC[C@@]2(C)[C@H]1CC[C@]2(C)O` ?
A: 83.7% (inactive)

----------
- System: TK-10 renal
- ASSAY REMARKS: NCI-60 one-dose screen, 48 h (100 = growth as untreated, 0 = no growth, -100 = all killed)
- CONDITION SUMMARY: 10 µM unless noted
Compounds without any hit were thinned out: in the full panel of roughly 83,000, 20% have a hit.
Rule: 1 (yes) for growth not less than 70%, 0 (no) for anything less.

Q: Answer whether growth of `CC1=NN(c2ccccc2Cl)C(=O)/C1=C\c1cn(S(=O)(=O)c2ccc(C)cc2)c2ccccc12` is greater than or equal to 70%.
A: 1 (yes)

Q: Does the reported growth for `CN(C)c1cccc2c(S(=O)(=O)N[C@H]3CC[C@H]4[C@@H]5CCc6cc(O)ccc6[C@H]5CC[C@]34C)cccc12` fall at or above the 70% mark?
A: 0 (no)

Q: Say whether `COc1ccc2[nH]cc(/C=C3/C(=O)Nc4ccc(Cl)cc43)c2c1` shows growth of 70% or more.
A: 0 (no)

Q: Hello, I need to know if `Cc1[nH]n(C(N)=S)c(=O)c1N=Nc1ccc(F)c(Cl)c1` has measured growth not below 70%. Thanks!
A: 1 (yes)

Q: Quick check, growth >= 70%? `Cc1cc(NC(=O)c2ccc(N)cc2)ccc1N=Nc1ccc2c(O)c(N=Nc3ccc(Cl)c(S(=O)(=O)O)c3)c(S(=O)(=O)O)cc2c1`
A: 1 (yes)

Q: Would you say `O=C(/C=C/c1cc2ccccc2[nH]c1=O)c1ccc(O)cc1` shows growth at minimum 70%?
A: 0 (no)

Q: Hi, just wondering whether `Cc1c(NCc2nnc3n(Cc4ccccc4)c(=O)c4c5c(sc4n23)CCCC5)c(=O)n(-c2ccccc2)n1C` shows growth of 70% or higher.
A: 1 (yes)

Q: Hi team, for CCC(O)C(C)(C)C (configuration not stated) , is the recorded growth at or above 70%?
A: 1 (yes)

Q: Has `Nc1ccc2c3c(cccc13)-c1ccccc1-2` a recorded growth greater than or equal to 70%?
A: 1 (yes)

Q: # check: growth of CC1CC(C)/C(=N/NC(N)=O)C(C(O)CC2CCC(=O)NC2=O)C1 (configuration not stated) is greater than or equal to 70%
A: 0 (no)

Q: Determine whether measured growth meets or exceeds 70% for `Cc1cc(C(=O)O)c(C)cc1C(=O)O`
A: 1 (yes)

Q: Has `NNC(=O)NO` a recorded growth greater than or equal to 70%?
A: 1 (yes)

Q: hey, is growth for this one >= 70%? `CC(c1cc(Cl)ccc1O)c1cc(Cl)ccc1O`
A: 1 (yes)

Q: Please indicate if the recorded growth for `COc1cc(C(=O)/C=C/c2cccnc2Nc2ccccc2)cc(OC)c1OC` meets or exceeds 70%.
A: 0 (no)

Q: Check if growth >= 70% (inclusive). Item: `Clc1ccc2c(Nc3ccc4oc(NCCN5CCCC5)nc4c3)ccnc2c1`
A: 1 (yes)

Q: Decide: is the reported value of growth for `CCSc1nnc2n(Cc3ccccc3)c(=O)c3c(C)c(C(N)=O)sc3n12` equal to or greater than 70%?
A: 1 (yes)

Q: Exam item: decide whether the reported growth for `O=C(Nc1ccncc1)C(=O)c1cn(S(=O)(=O)c2cccc(F)c2)c2ccccc12` is at least 70%.
A: 1 (yes)

Q: Please check the record CC1SC(c2c(Cl)cccc2Cl)N(NC(=O)c2[nH]c3ccc(F)cc3c2-c2ccccc2)C1=O (configuration not stated) and state if its growth is at or above 70%.
A: 0 (no)

Q: // inclusive: growth at least 70%? input: `CCN(CC)c1ccc(CN(CC(=O)c2ccc(Cl)c(Cl)c2)Cc2ccccc2)cc1`
A: 1 (yes)

Q: Quick check: does COc1cccc2c1C(=O)c1c(O)c3c(c(O)c1C2=O)C[C@@](O)(/C(C)=N/NC(=O)c1cccc([N+](=O)[O-])c1)C[C@@H]3OC1CC(N)C(O)C(C)O1 (some centres not stated) have growth greater than or equal to 70%?
A: 0 (no)

Q: Please indicate if the recorded growth for `CN(CC(=O)N(Cc1ccc(C2CCCCC2)cc1)c1ccc(C(=O)O)cc1)S(=O)(=O)c1c(F)c(F)c(F)c(F)c1F` meets or exceeds 70%.
A: 1 (yes)

Q: Item ClC1C2CC(c3ccccc32)C1Cl (configuration not stated) with growth of 70% or above?
A: 1 (yes)

Q: Threshold query (growth >= 70%) on `CCCCCCCCCCCCCCCCCc1nccn1CCO`
A: 1 (yes)

Q: Dear colleague, could you confirm whether `c1ccc(-c2nn[nH]n2)c(-c2ccc(CN3CCN(c4nsc5ccccc45)CC3)cc2)c1` has growth at or above 70%?
A: 1 (yes)

Q: # bool: growth of `COC(=O)[C@]12CC[C@@H](C)[C@H](C)[C@@H]1C1=CC[C@@H]3[C@@]4(C)C[C@@H](OC(=O)c5ccco5)[C@H](O)[C@@](C)(CO)[C@@H]4[C@H](O)C[C@@]3(C)[C@]1(C)CC2` >= 70%
A: 0 (no)

Q: Dear colleague, could you confirm whether `Clc1ccc2nc(Cl)c3ccccc3c2c1` has growth at or above 70%?
A: 0 (no)

Q: Exam item: decide whether the reported growth for `COc1ccc2[nH]cc(/C=C3/C(=O)Nc4ccc(F)cc43)c2c1` is at least 70%.
A: 1 (yes)

Q: Check this compound for growth at or above 70%: `Oc1ccccc1/C=N\Nc1ccccc1`
A: 1 (yes)

Q: growth >= 70% for CN1CCCC1c1cccnc1 (configuration not stated) ?
A: 1 (yes)

Q: In plain terms: is recorded growth at least 70% for O=c1[nH]c(=O)n(C2CC(O)C(CO)O2)cc1C(F)(F)F (configuration not stated) ?
A: 0 (no)

Q: Given CC12CCCCC1C(C(N)=O)C(=O)O2 (configuration not stated) , state whether its growth is at least 70%.
A: 1 (yes)

Q: Confirm if growth reported for the compound `O=C1OCCCCCCCCCC#Cc2ccccc21` is 70% or above.
A: 1 (yes)

Q: Assess whether reported growth for `O=C(CSc1nnc(Nc2ccccc2)s1)NCCc1ccc(F)cc1` sits at 70% or higher.
A: 1 (yes)

Q: For this compound, is measured growth 70% or higher? `Cc1cc(Cl)ccc1Nc1nc(C(F)(F)F)ccc1C(=O)NCC(=O)N/N=C/c1c(Cl)cccc1Cl`
A: 1 (yes)

Q: # bool: growth of `COc1cccc2c1O/C(=C\c1c([N+](=O)[O-])ncn1C)C2=O` >= 70%
A: 1 (yes)

Q: Reported growth at or above 70%? `COc1cc(NC(=O)c2cc3ccccc3cc2O)c(OC)cc1Cl`
A: 0 (no)

Q: Does growth meet or surpass 70% for `Cc1nc2cc(NC(=O)CN3CCN(CCN4C(=O)c5cccc6cccc(c56)C4=O)CC3)ccc2s1` ?
A: 1 (yes)

Q: Check if growth >= 70% (inclusive). Item: `CC/C(=C\c1ccc(N(C)C)cc1)c1ccncc1`
A: 1 (yes)

Q: I'd appreciate it if you could say whether `C=CCOc1ccc2c(c1)CC[C@@H]1[C@@H]2CC[C@@]2(C)[C@H]1CC[C@]2(C)O` has growth at least equal to 70%.
A: 0 (no)

Q: API: above_or_equal(metric=growth, cutoff=70%) for item `Cc1ccc(NC(=O)COC(=O)c2ccc(S(=O)(=O)N3CCCCCC3)cc2)cc1`
A: 1 (yes)

Q: Quick check: does `NS(=O)(=O)c1ccc(NC2=C(Cl)C(=O)c3ccccc3C2=O)cc1` have growth greater than or equal to 70%?
A: 1 (yes)

Q: Check this compound for growth at or above 70%: `C=C(C)[C@@H]1C/C=C(/C=O)CC[C@@H]2O[C@@]2(C)CC/C=C(\C)CC1`
A: 1 (yes)
